Origin of measurements: patent US5428020A

# Test system: human platelets
# Assay Name: Inhibition of agonist-induced aggregation of washed human platelets (aggregometer)
# Assay type: cell-based
# Set-up: key: "+" indicates inhibition of platelet aggregation; "-" indicates the absence of inhibition of platelet aggregation; "partial" indicates a partial inhibition of platelet aggregation
# Condition Description: agonist ADP 20 uM; inhibitor peptide 0.8 nm; 37° C.
* marks the point of attachment. Npys = O=[N+]([O-])c1cccnc1S*
Measured Attribute: Inhibition of platelet aggregation, ADP

TFA.H-Gln-Val-Val-Cys(NpyS)-Gly-NH2 (H-QVVC(Npys)G-NH2; also: TFA salt) [Example 5]: +
TFA.H-Phe-Gln-Val-Val-Cys(NpyS)-Gly-NH2 (H-FQVVC(Npys)G-NH2; also: TFA salt) [Example 1]: -
TFA.H-Ala-Gln-Val-Val-CYs (NpyS)-GlY-NH2 (H-AQVV-{Cys(NpyS)-Gly-NH2}; also: TFA salt) [Example 4]: +
TFA.H-Arg-Gln-Val-Val-Cys(NPYS)-GlY-NH2 (H-RQVVC(Npys)G-NH2; also: TFA salt) [Example 3]: +
